B1: HDV Ribozyme (parent)
chain: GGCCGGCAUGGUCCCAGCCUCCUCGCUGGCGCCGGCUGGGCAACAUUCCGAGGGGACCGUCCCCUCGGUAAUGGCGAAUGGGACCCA

Variants of: B1
Assay: self-cleavage, relative activity (ratio to wild type); higher = more cleavage; co-transcriptional

Biopolymer Sequence	self-cleavage
GGCCGGCAUGGUCCCAGCCUCCUCGCUGGCGCCGGCUGGGCAACAUUCCGAGGGGACCGUCCCCUCGGUUACGGCGAAUGGGACCCA	0.653
GGCCGGCAUGGUCCCAGCCUCCUCGCUGGCGCCGGCUGGGCAACAUUCUGAGGGGACCGUCCCCUCGGUAAUGGCGAAUGGGACCGA	1.16
GGCCGGCAUGGUCCCAGCCUCCUCGCUGGCGCCGGCUGGGCAACAUUCCUAGGGGACCGUCCCCUCGGUAUUGGCGAAUGGGACCCA	1.02
GGCCGGCAUGGUCCCAGCCUCGUCGCUGGCGCCGGCUGGGCAACAUUCCGAGGGGACCGUCCGCUCGGUAAUGGCGAAUGGGACCCA	0
GGCCGGCAUGGUCCCAGCCUCCUCGCUGGCGCCCGCUGGGCAACAUUCCGAGGGGACCGUCCCCUCGGUUAUGGCGAAUGGGACCCA	0.0378
GGCCGGCAUGGUCCCAGCCUCCUGGCUGGCGCCGGCUGGGCAACAUUCCGAGGGGACCGUACCCUCGGUAAUGGCGAAUGGGACCCA	0.112
GGCCGGCAUGGUCCCAGCCUCCUCGCUGACGCCGGCUGGGCAACAUUCCGAUGGGACCGUCCCCUCGGUAAUGGCGAAUGGGACCCA	0.153
GGCCGGCAUGGUCCCAGCCUCCUCGUUGGCGCCGGCUGGGCAACAUUCCGUGGGGACCGUCCCCUCGGUAAUGGCGAAUGGGACCCA	0.901
GUCCGGCAUGGUCCCAGCCUCCUCGCUCGCGCCGGCUGGGCAACAUUCCGAGGGGACCGUCCCCUCGGUAAUGGCGAAUGGGACCCA	0.0234
GGCCGGCAUGGUCCCAGCCUCCUCGCUGACGCCGGCUGGGCAACAUUCCAAGGGGACCGUCCCCUCGGUAAUGGCGAAUGGGACCCA	0.134
GGCCGGCAUGGUCCGUGCCUCCUCGCUGGCGCCGGCUGGGCAACAUUCCGAGGGGACCGUCCCCUCGGUAAUGGCGAAUGGGACCCA	0.795
GGCCGGCAUGGUCCCAGCCUCCUCGCUGGCGCCGGCUGGGCAACAUUCCGAGGGGACCGUCCCCUCGUUAAUGGCGAAUGGGACCCC	1.01
GGCCGGCAUGGUCCCAGCCUCCUCGCUGGCGCCGGCUGGGCAACGUUCCGAGGGGACCGGCCCCUCGGUAAUGGCGAAUGGGACCCA	1.31
GGCCGGCAUGGUUCCAGCCUCCUCGCUGGCGCCGGCUGGGCAACAUUCCGAGGGGACCGUCCCCUCGGUAAUGGCGCAUGGGACCCA	0.293
GGCCGGCAUGGUCCCAGCCUCCUCGCUUGCGCCGGCUGGGCAACAUUCCGUGGGGACCGUCCCCUCGGUAAUGGCGAAUGGGACCCA	0.166
GGCCGGCAUGGUCCCAGCCUGCUCGCAGGCGCCGGCUGGGCAACAUUCCGAGGGGACCGUCCCCUCGGUAAUGGCGAAUGGGACCCA	0
GGCCGGCAUGGUCCCAGCCUCAUCGCUGGCGCCGGCUGGGCAACAUUCCGAGGGGACCGGCCCCUCGGUAAUGGCGAAUGGGACCCA	0.177
GGCCGGCAUGGUCCCAGCCUCCUCGCUGGCGCUGGCUGGGCAACAUUCCGAGGGGACCGUCCCCUCGGUAGUGGCGAAUGGGACCCA	0.886
GGCCGGCAUGGUCCCAGCCUCCUCGCUGGCGCCGGUUGGGCAACAUUCCGAGGGGACCAUCCCCUCGGUAAUGGCGAAUGGGACCCA	0.704
